- System: Staphylococcus aureus
- Test: Antimicrobial activity against Staphylococcus aureus 5 expressing inducible ermB after 20 hrs by agar dilution method
- Format: functional
Measured Quantity: MIC (µg/mL)
The figure you give is taken to be in µg/mL; do not add the unit.

Using the record for CCOC(=O)[C@H]1[C@H](C)O[C@@H](O[C@H]2[C@H](N(C)C)[C@@H](O)[C@H](O[C@H]3[C@@H](CC=O)C[C@@H](C)[C@@H](O)CN(C)CCC(CCCc4ccnc5ccccc45)NC(=O)C[C@@H](OC(=O)CC)[C@@H]3OC)O[C@@H]2C)C[C@@]1(C)O (stereo in doubt; form 2) , report its MIC.
4

Request the reported MIC associated with CCOC(=O)[C@H]1[C@H](C)O[C@@H](O[C@H]2[C@H](N(C)C)[C@@H](O)[C@H](O[C@H]3[C@@H](CC=O)C[C@@H](C)[C@@H](O)CN(CCCCc4ccccc4)CCC(C)NC(=O)C[C@@H](OC(=O)CC)[C@@H]3OC)O[C@@H]2C)C[C@@]1(C)OC(C)=O (stereo in doubt; form 2)
0.25

Can you look up the measured MIC of CCOC(=O)[C@H]1[C@H](C)O[C@@H](O[C@H]2[C@H](N(C)C)[C@@H](O)[C@H](O[C@H]3[C@@H](CC=O)C[C@@H](C)[C@@H](O)CN(C)CC(/C=C/Cc4ccnc5ccccc45)CCOC(=O)C[C@@H](OC(=O)CC)[C@@H]3OC)O[C@@H]2C)C[C@@]1(C)O (stereo in doubt; form 2) for me?
0.25

----------
- System: Streptococcus pneumoniae
- Test: Antimicrobial activity against Streptococcus pneumoniae 6 constitutively expressing ermB after 20 hrs by agar dilution method
- Type: functional
- Condition Info: Streptococcus pneumoniae, 20 h; read-out: MIC
Measured Quantity: MIC

Find the recorded MIC belonging to CCOC(=O)[C@H]1[C@H](C)O[C@@H](O[C@H]2[C@H](N(C)C)[C@@H](O)[C@H](O[C@H]3[C@@H](CC=O)C[C@@H](C)[C@@H](OC(C)=O)CN(CCCCc4ccccc4)CCC[C@@H](C)OC(=O)C[C@@H](OC(=O)CC)[C@@H]3OC)O[C@@H]2C)C[C@@]1(C)OC(C)=O and report it.
> 128 µg/mL

Which MIC value belongs to CCOC(=O)[C@H]1[C@H](C)O[C@@H](O[C@H]2[C@H](N(C)C)[C@@H](O)[C@H](O[C@H]3[C@@H](CC=O)C[C@@H](C)[C@@H](O)CN(C)CC(/C=C/Cc4cncc5ccccc45)CCOC(=O)C[C@@H](OC(=O)CC)[C@@H]3OC)O[C@@H]2C)C[C@@]1(C)O (stereo not given in full) ?
128 µg/mL

Look up MIC: CCOC(=O)[C@H]1[C@H](C)O[C@@H](O[C@H]2[C@H](N(C)C)[C@@H](O)[C@H](O[C@H]3[C@@H](CC=O)C[C@@H](C)[C@@H](O)CN(C)CCC(/C=C/Cc4ccnc5ccccc45)NC(=O)C[C@@H](OC(=O)CC)[C@@H]3OC)O[C@@H]2C)C[C@@]1(C)O (mixture of isomers)
> 128 µg/mL

Which value of MIC has been reported for CCOC(=O)[C@H]1[C@H](C)O[C@@H](O[C@H]2[C@H](N(C)C)[C@@H](O)[C@H](O[C@H]3[C@@H](CC=O)C[C@@H](C)[C@@H](O)CN(C)CCC[C@H](C/C=C/c4ccc5ncccc5c4)OC(=O)C[C@@H](OC(=O)CC)[C@@H]3OC)O[C@@H]2C)C[C@@]1(C)O in the records?
> 128 µg/mL

Returns the measured MIC for the input molecule. Input: CCOC(=O)[C@H]1[C@H](C)O[C@@H](O[C@H]2[C@H](N(C)C)[C@@H](O)[C@H](O[C@H]3[C@@H](CC=O)C[C@@H](C)[C@@H](OC(C)=O)CN(C)CCN(CCCCc4ccccc4)C(=O)C[C@@H](OC(=O)CC)[C@@H]3OC)O[C@@H]2C)C[C@@]1(C)OC(C)=O
> 128 µg/mL

Each recorded value in this set is attributed to ChEMBL document CHEMBL1151705.
